# assayed system: CCR5 (UniProt P51681)
# assay notes: cell-based or functional assay
property label: anti-HIV potency (IC50, nM) by viral replication assay
Just so you know, I need the unit written after the number.

binder	endpoint result
RANTES derivative: signature sequence SEQ ID NO: 4 fused to positions 10-68 of native RANTES (SEQ ID NO: 1) (ligand) QGPPLMWLQVCCFAYIARPLPRAHIKEYFYTSGKCSNPAVVFVTRKNRQVCANPEKKWVREYINSLEMS	0.38 nM

// each binder listed below needs its anti-HIV potency (IC50, nM) by viral replication assay
1. RANTES derivative: signature sequence SEQ ID NO: 23 fused to positions 10-68 of native RANTES (SEQ ID NO: 1) (ligand) QGPPLMSTQSCCFAYIARPLPRAHIKEYFYTSGKCSNPAVVFVTRKNRQVCANPEKKWVREYINSLEMS
2. RANTES derivative: signature sequence SEQ ID NO: 17 fused to positions 10-68 of native RANTES (SEQ ID NO: 1) (ligand) QGPPGDIVLACCFAYIARPLPRAHIKEYFYTSGKCSNPAVVFVTRKNRQVCANPEKKWVREYINSLEMS
3. RANTES derivative: signature sequence SEQ ID NO: 12 fused to positions 10-68 of native RANTES (SEQ ID NO: 1) (ligand) QGPPLMWLGGCCFAYIARPLPRAHIKEYFYTSGKCSNPAVVFVTRKNRQVCANPEKKWVREYINSLEMS

Completion:
1. 0.625 nM
2. 129 nM
3. 0.204 nM

From: patent US20090317363A1
